- measurement.target: human TYK2 (JH2domain-pseudokinase) (Homo sapiens (Human), UniProt P29597)
- Sequence (P29597 556-888): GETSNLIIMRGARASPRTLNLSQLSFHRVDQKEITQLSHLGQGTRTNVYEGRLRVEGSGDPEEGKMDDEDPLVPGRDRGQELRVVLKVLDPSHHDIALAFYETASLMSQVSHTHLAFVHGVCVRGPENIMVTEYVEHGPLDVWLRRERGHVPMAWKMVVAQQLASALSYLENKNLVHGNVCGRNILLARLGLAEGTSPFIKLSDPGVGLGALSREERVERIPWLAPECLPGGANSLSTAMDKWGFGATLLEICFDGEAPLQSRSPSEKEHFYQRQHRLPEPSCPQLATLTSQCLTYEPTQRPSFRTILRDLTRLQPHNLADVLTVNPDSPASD
- method.notes: TYK2 JH2 Domain Binding Assay (KINOMEscan)
reported.endpoint: Kd

Worked examples, 5 compounds total:
[
  {
    "compound": "CNc1cc(Nc2cccnc2OC2CC2)nc2c(C(=O)N[C@H]3COC[C@H]3O)cnn12 [I-520]",
    "observed": "0.2 to 1 nM"
  },
  {
    "compound": "CNc1cc(Nc2cc(Cl)cn(-c3cnn(C4CC4)c3C)c2=O)nc2c(C(=O)NC3CCC3)cnn12",
    "observed": "0.2 to 1 nM"
  },
  {
    "compound": "CNc1cc(Nc2cc(Cl)cn([C@H]3CCCN(C)C3)c2=O)nc2c(C(=O)NC3CC3)cnn12",
    "observed": "< 0.2 nM"
  },
  {
    "compound": "CNc1cc(Nc2cccn(-c3cnco3)c2=O)nc2c(C(=O)N[C@H]3CC[C@H]3O)cnn12 [I-1017]",
    "observed": "< 0.2 nM"
  },
  {
    "compound": "CNc1cc(Nc2cccc([C@@H]3CCCCO3)n2)nc2c(C(=O)N[C@H]3CC[C@H]3O)cnn12",
    "observed": "1 to 10 nM"
  }
]

stdin: Check the records and state Kd for CNc1cc(Nc2cccn(-c3nc(C)co3)c2=O)nc2c(C(=O)NC[C@@H](C)CO)cnn12
stdout: < 0.2 nM

stdin: Read the entry CNc1cc(-c2cn(C(C)C)c3ncccc23)nc2c(C(=O)N[C@H]3CC[C@@]3(C)O)cnn12 [I-1327] and write its reported Kd.
stdout: < 0.2 nM

stdin: Answer with the recorded Kd for the compound listed here: CNc1cc(Nc2cccn([C@H]3CCC[C@@H]3OC)c2=O)nc2c(C(=O)N[C@@H]3C[C@@H]3F)cnn12 [I-485]
stdout: 0.2 to 1 nM

stdin: Consider the compound CNc1cc(Nc2cccn(-c3cccc(F)c3)c2=O)nc2c(C(=O)N[C@@H]3COC[C@@H]3O)cnn12 . State its measured Kd.
stdout: 1 to 10 nM

stdin: Look up and report measured Kd for this entry: CNc1cc(Nc2cccn([C@@H]3CCOC3)c2=O)nc2c(C(N)=O)cnn12
stdout: 0.2 to 1 nM

stdin: # return recorded Kd for entry CNc1cc(-c2cn(C(C)C)c3ncc(Cl)cc23)nc2c(C(N)=O)cnn12
stdout: < 0.2 nM

stdin: Please report Kd for the following compound: CNc1cc(-c2cn([C@H]3CCCOC3)c3ncccc23)nc2c(C(=O)N[C@H]3CC[C@@H]3OC)cnn12 [I-1283]
stdout: 1 to 10 nM

stdin: Return Kd for the following compound: CNc1cc(Nc2cccn([C@H]3CCC[C@@H](OC)C3)c2=O)nc2c(C(=O)N[C@H]3CC[C@@H]3OC)cnn12 [I-996]
stdout: < 0.2 nM

stdin: For the compound CNc1cc(Nc2cccn(-c3cnn(CC4CCOCC4)c3)c2=O)nc2c(C(=O)N[C@H]3C[C@H]3F)cnn12 , give its measured Kd value.
stdout: < 0.2 nM

stdin: Quote Kd reported for CNc1cc(Nc2cccc(C)c2Cl)nc2c(C(N)=O)cnn12 please.
stdout: < 0.2 nM

stdin: Check the records and state Kd for CNc1cc(Nc2cccn(-c3cnco3)c2=O)nc2c(C(=O)NC3CC3)cnn12
stdout: < 0.2 nM

stdin: Please report Kd for the following compound: CNc1cc(Nc2cccn([C@H]3CC[C@@H](OC)CC3)c2=O)nc2c(C(=O)NC3CCC3)cnn12
stdout: < 0.2 nM

stdin: For the compound CNc1cc(Nc2cccn(-c3cnco3)c2=O)nc2c(C(=O)N[C@@H]3C[C@@H]3F)cnn12 , report Kd.
stdout: < 0.2 nM

---

- measurement.target: JAK2 kinase domain (JH1) (Homo sapiens (Human))
- Sequence (O60674 849-1124): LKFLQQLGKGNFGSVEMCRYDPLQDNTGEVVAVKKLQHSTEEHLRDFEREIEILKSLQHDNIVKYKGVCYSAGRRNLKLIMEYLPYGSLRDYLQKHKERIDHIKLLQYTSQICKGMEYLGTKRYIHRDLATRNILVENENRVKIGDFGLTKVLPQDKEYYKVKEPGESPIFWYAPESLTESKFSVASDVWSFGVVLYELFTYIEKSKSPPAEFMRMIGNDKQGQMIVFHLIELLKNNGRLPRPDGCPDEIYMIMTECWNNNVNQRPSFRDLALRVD
- method.notes: JAK2 Radioactive Kinase Assay
- Format: biochemical
- measurement.context: compound at 10 μM; ATP 10 μM; read-out: JAK2 JH1% Inhibition @ 10 μM
Form field: inhibition at 10 µM (one value per entry).

Below, each entry is followed by its recorded inhibition at 10 µM result.
[
  {
    "molecule": "CNc1cc(Nc2cccn([C@H]3CCCOC3)c2=O)nc2c(C(=O)N[C@H]3CC[C@@H]3O)cnn12 [I-697]",
    "observed": "< 50%"
  },
  {
    "molecule": "CNc1cc(Nc2cc(Cl)cn(-c3cc(C)n(C)n3)c2=O)nc2c(C(=O)NC3CC3)cnn12 [I-314]",
    "observed": "< 50%"
  },
  {
    "molecule": "CNc1cc(Nc2cc(Cl)cn([C@@H]3CCCOC3)c2=O)nc2c(C(=O)N[C@@H]3C[C@@H]3F)cnn12 [I-773]",
    "observed": "< 50%"
  }
]

// next entry
stdin: Identify the reported inhibition at 10 µM for the following entry. CNc1cc(Nc2cccnc2OC2CCC2)nc2c(C(=O)NC3CCC3)cnn12 [I-168]
stdout: < 50%

---

- measurement.target: human TYK2 (JH2domain-pseudokinase) (Homo sapiens (Human))
- method.notes: TYK2 JH2 Domain Binding Assay (KINOMEscan)
- Method: Binding constants for compounds of the present invention against the JH2 domain were determined by the following protocol for a KINOMEscan® assay (DiscoveRx). […] The TYK2 (JH2domain-pseudokinase) fusion protein was labeled with a chimeric double-stranded DNA tag containing the NFkB binding site (5′-[…]-3′) fused to an amplicon for qPCR readout, which was added directly to the expression extract (the final concentration of DNA-tag in the binding reaction is 0.1 nM). […]
pKd: −log10 of the molar value.
reported.endpoint: pKd

[
  {
    "molecule": "CNc1cc(Nc2cccn(-c3cccnc3)c2=O)nc2c(C(=O)N[C@@H]3C[C@@H]3F)cnn12 [I-748]",
    "measurement.target": "human TYK2 (JH2domain-pseudokinase) (Homo sapiens (Human))",
    "observed": "> 9.70"
  },
  {
    "molecule": "CNc1cc(Nc2cccnc2OC)nc2c(C(=O)N[C@H]3COC[C@H]3O)cnn12 [I-615]",
    "measurement.target": "human TYK2 (JH2domain-pseudokinase) (Homo sapiens (Human))",
    "observed": "> 9.70"
  },
  {
    "molecule": "CNc1cc(Nc2cc(Cl)cn(-c3cnc(C(=O)N(C)C)cn3)c2=O)nc2c(C(=O)N[C@H]3C[C@H]3F)cnn12 [I-319]",
    "measurement.target": "human TYK2 (JH2domain-pseudokinase) (Homo sapiens (Human))",
    "observed": "> 9.70"
  }
]

stdin: Read the entry CNc1cc(Nc2cccn([C@@H]3CCCN(CCF)C3)c2=O)nc2c(C(=O)N[C@@H]3CC[C@H]3OC)cnn12 [I-1383] and write its reported pKd.
stdout: 8.00 to 9.00

stdin: Please give measured pKd of the following entry: CNc1cc(Nc2cc(C)cn(-c3cnn(C)c3)c2=O)nc2c(C(=O)NC3CC3)cnn12 [I-233]
stdout: > 9.70

stdin: For the molecule CNc1cc(-c2cn([C@@H]3CCCOC3)c3ncccc23)nc2c(C(=O)N[C@H]3CC[C@@H]3OC)cnn12 [I-1268] , give its reported pKd.
stdout: < 8.00

stdin: Fill in pKd for record CNc1cc(-c2nn(CCN3CCN(C)CC3)c3ncccc23)nc2c(C(=O)NC3CC3)cnn12 [I-479]
stdout: 8.00 to 9.00

stdin: Look up and report measured pKd for this entry: CNc1cc(-c2cn(C(C)C)c3ncccc23)nc2c(C(=O)N[C@@H]3CC[C@@H]3O)cnn12 [I-638]
stdout: 9.00 to 9.70

---

- measurement.target: JAK2 kinase domain (JH1) (Homo sapiens (Human))
- method.notes: JAK2 Radioactive Kinase Assay
- Type: biochemical
- measurement.context: compound at 10 μM; ATP 10 μM; read-out: JAK2 JH1% Inhibition @ 10 μM
Form field: inhibition at 10 µM (one value per entry).

[
  {
    "compound": "CO[C@@H]1CCN(c2cc(Nc3cc(N)n4ncc(C(N)=O)c4n3)cc(C)n2)C1 [I-30]",
    "inhibition at 10 µM": "< 50%"
  },
  {
    "compound": "CNc1cc(Nc2cccnc2OC2CC2)nc2c(C(=O)NC(C)(C)C#N)cnn12 [I-492]",
    "inhibition at 10 µM": "< 50%"
  },
  {
    "compound": "CNc1cc(Nc2cccn([C@@H]3CCCOC3)c2=O)nc2c(C(=O)N[C@H]3COC[C@H]3O)cnn12 [I-754]",
    "inhibition at 10 µM": "< 50%"
  },
  {
    "compound": "CNc1cc(Nc2cccn([C@@H]3CCCOC3)c2=O)nc2c(C(=O)NCC3(CO)CC3)cnn12 [I-700]",
    "inhibition at 10 µM": "< 50%"
  }
]

stdin: Provide only the value of recorded inhibition at 10 µM for Nc1cc(Nc2cccnc2OC(F)(F)F)nc2c(C(=O)NC3CC3)cnn12 [I-113]
stdout: > 90%

stdin: Answer with the recorded inhibition at 10 µM for the compound listed here: CNc1cc(Nc2cccnc2O[C@H]2C[C@H](OC)C2)nc2c(C(=O)NC3CC3)cnn12 [I-188]
stdout: < 50%

stdin: Identify inhibition at 10 µM associated with the compound CNc1cc(Nc2cccc([C@@H]3CCCOC3)n2)nc2c(C(=O)NC3CC3)cnn12 [I-548]
stdout: 50 to 70%

stdin: Indicate the recorded inhibition at 10 µM value for this compound: CNc1cc(Nc2cccn([C@H]3CCC[C@@H]3OC)c2=O)nc2c(C(=O)NC3CC3)cnn12 [I-403]
stdout: < 50%

stdin: Return inhibition at 10 µM (reported value) for this compound: CNc1cc(Nc2cccnc2OC(C)C)nc2c(C(=O)NC3CC3)cnn12 [I-146]
stdout: < 50%

The reported measurements were obtained from patent US10508120B2.
